Hey, just so you know, these numbers are from PubChem BioAssay AID1963831.

Test system: 889142-216-R-J1-PDC complex spheroid viability
Experiment: Anticancer human tumor 889142-216-R-J1-PDC patient-derived bladder carcinoma cell line growth inhibition [POLQ]
Details: second compound 0.316 µM; first compound 0.316 µM; active compounds read low
viability, T/C strictly less than 40% = 1. Otherwise -1.

I wonder whether CCc1c2c(nc3ccc(O)cc13)-c1cc3c(c(=O)n1C2)COC(=O)[C@]3(O)CC + Cc1cccc(N(C)C(=O)C2C(O)CCN2c2nc(C)cc(C(F)(F)F)c2C#N)c1 has viability, T/C below 40%. Can you tell?
1

I wonder whether CC(C)n1c(=O)n(C)c2cnc3cc(F)c(-c4ccc(OCCCN5CCCCC5)nc4)cc3c21 + Nc1ccc(C#CCN(C(=O)Cc2ncc(C(F)(F)F)cc2C(F)(F)F)c2ccc(F)cc2)nn1 has viability, T/C below 40%. Can you tell?
-1

I wonder whether CCc1cc2c(N3CCc4c(cc(Cn5ccnc5)cc4-c4cn(C)nc4C(F)(F)F)C3=O)cc(C)nc2c(OC)n1 + Nc1ccc(C#CCN(C(=O)Cc2ncc(C(F)(F)F)cc2C(F)(F)F)c2ccc(F)cc2)nn1 has viability, T/C below 40%. Can you tell?
-1

I wonder whether Nc1ccn(C2OC(CO)C(O)C2(F)F)c(=O)n1 (stereo not given) + COC1C(OC(N)=O)C(O)C(Oc2ccc3c(O)c(NC(=O)c4ccc(O)c(CC=C(C)C)c4)c(=O)oc3c2C)OC1(C)C has viability, T/C below 40%. Can you tell?
-1

====

Tested on: 889142-216-R-J1-PDC complex spheroid viability
Test: Anticancer human tumor 889142-216-R-J1-PDC cell line growth inhibition [POLQ];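 further: spheroids exposed to compounds for seven days; 100% = DMSO vehicle control viability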
Conditions: second compound 0.0316 µM; first compound 0.316 µM; active compounds read low
viability, T/C strictly less than 90% = Yes. Otherwise No.

I wonder whether CCCS(=O)(=O)Nc1ccc(F)c(C(=O)c2c[nH]c3ncc(-c4ccc(Cl)cc4)cc23)c1F + Nc1ccc(C#CCN(C(=O)Cc2ncc(C(F)(F)F)cc2C(F)(F)F)c2ccc(F)cc2)nn1 has viability, T/C below 90%. Can you tell?
No

I wonder whether C=CC(=O)N1CCN(c2nc(=O)n(-c3c(C)ccnc3C(C)C)c3nc(-c4c(O)cccc4F)c(F)cc23)C(C)C1 (stereo not given) + COC1C(OC(N)=O)C(O)C(Oc2ccc3c(O)c(NC(=O)c4ccc(O)c(CC=C(C)C)c4)c(=O)oc3c2C)OC1(C)C has viability, T/C below 90%. Can you tell?
No

I wonder whether CC1COCCN1c1cc(C2(O)CC3CCC(C2)O3)c2cnn(-c3ccn[nH]3)c2n1 (stereo not given) + Cc1cccc(N(C)C(=O)C2C(O)CCN2c2nc(C)cc(C(F)(F)F)c2C#N)c1 has viability, T/C below 90%. Can you tell?
Yes

I wonder whether COc1cccc(OCCCN)c1-c1cc(Nc2cnc(C#N)cn2)n[nH]1 + Nc1ccc(C#CCN(C(=O)Cc2ncc(C(F)(F)F)cc2C(F)(F)F)c2ccc(F)cc2)nn1 has viability, T/C below 90%. Can you tell?
Yes

I wonder whether O=C(c1cc(Cc2n[nH]c(=O)c3ccccc23)ccc1F)N1CCN(C(=O)C2CC2)CC1 + Cc1cccc(N(C)C(=O)C2C(O)CCN2c2nc(C)cc(C(F)(F)F)c2C#N)c1 has viability, T/C below 90%. Can you tell?
No

I wonder whether CC1COCCN1c1cc(C2(O)CC3CCC(C2)O3)c2cnn(-c3ccn[nH]3)c2n1 (stereo not given) + COC1C(OC(N)=O)C(O)C(Oc2ccc3c(O)c(NC(=O)c4ccc(O)c(CC=C(C)C)c4)c(=O)oc3c2C)OC1(C)C has viability, T/C below 90%. Can you tell?
Yes

I wonder whether CCc1cc2c(N3CCc4c(cc(Cn5ccnc5)cc4-c4cn(C)nc4C(F)(F)F)C3=O)cc(C)nc2c(OC)n1 + COC1C(OC(N)=O)C(O)C(Oc2ccc3c(O)c(NC(=O)c4ccc(O)c(CC=C(C)C)c4)c(=O)oc3c2C)OC1(C)C has viability, T/C below 90%. Can you tell?
No

I wonder whether COc1cccc(OCCCN)c1-c1cc(Nc2cnc(C#N)cn2)n[nH]1 + Cc1cccc(N(C)C(=O)C2C(O)CCN2c2nc(C)cc(C(F)(F)F)c2C#N)c1 has viability, T/C below 90%. Can you tell?
Yes

I wonder whether CC1COCCN1c1cc(-c2ccnn2C)c2ccnc(-c3ccn[nH]3)c2n1 (stereo not given) + Cc1cccc(N(C)C(=O)C2C(O)CCN2c2nc(C)cc(C(F)(F)F)c2C#N)c1 has viability, T/C below 90%. Can you tell?
Yes

I wonder whether CC1COCCN1c1cc(C2(S(C)(=N)=O)CC2)nc(-c2ccnc3[nH]ccc23)n1 (stereo not given) + Cc1cccc(N(C)C(=O)C2C(O)CCN2c2nc(C)cc(C(F)(F)F)c2C#N)c1 has viability, T/C below 90%. Can you tell?
Yes

I wonder whether CCc1cc2c(N3CCc4c(cc(Cn5ccnc5)cc4-c4cn(C)nc4C(F)(F)F)C3=O)ccnc2c(OC)n1 + COC1C(OC(N)=O)C(O)C(Oc2ccc3c(O)c(NC(=O)c4ccc(O)c(CC=C(C)C)c4)c(=O)oc3c2C)OC1(C)C has viability, T/C below 90%. Can you tell?
No

I wonder whether O=C(Nc1ccc(O)c(NS(=O)(=O)c2ccc(F)cc2)c1)c1ccc(-c2ccccc2)cc1 + COC1C(OC(N)=O)C(O)C(Oc2ccc3c(O)c(NC(=O)c4ccc(O)c(CC=C(C)C)c4)c(=O)oc3c2C)OC1(C)C has viability, T/C below 90%. Can you tell?
No

I wonder whether Nc1ccn(C2OC(CO)C(O)C2(F)F)c(=O)n1 (stereo not given) + Cc1cccc(N(C)C(=O)C2C(O)CCN2c2nc(C)cc(C(F)(F)F)c2C#N)c1 has viability, T/C below 90%. Can you tell?
Yes

I wonder whether COc1cc(C2c3cc4c(cc3C(OC3OC5COC(C)OC5C(O)C3O)C3COC(=O)C23)OCO4)cc(OC)c1O (stereo not given) + Nc1ccc(C#CCN(C(=O)Cc2ncc(C(F)(F)F)cc2C(F)(F)F)c2ccc(F)cc2)nn1 has viability, T/C below 90%. Can you tell?
Yes

I wonder whether CCc1cc2c(N3CCc4c(cc(Cn5ccnc5)cc4-c4cn(C)nc4C(F)(F)F)C3=O)ccnc2c(OC)n1 + Cc1cccc(N(C)C(=O)C2C(O)CCN2c2nc(C)cc(C(F)(F)F)c2C#N)c1 has viability, T/C below 90%. Can you tell?
No

I wonder whether O=C(c1cc(Cc2n[nH]c(=O)c3ccccc23)ccc1F)N1CCN(C(=O)C2CC2)CC1 + COC1C(OC(N)=O)C(O)C(Oc2ccc3c(O)c(NC(=O)c4ccc(O)c(CC=C(C)C)c4)c(=O)oc3c2C)OC1(C)C has viability, T/C below 90%. Can you tell?
Yes

I wonder whether CNCc1ccc(-c2[nH]c3cc(F)cc4c3c2CCNC4=O)cc1 + Nc1ccc(C#CCN(C(=O)Cc2ncc(C(F)(F)F)cc2C(F)(F)F)c2ccc(F)cc2)nn1 has viability, T/C below 90%. Can you tell?
No

I wonder whether CC(C)n1c(=O)n(C)c2cnc3cc(F)c(-c4ccc(OCCCN5CCCCC5)nc4)cc3c21 + COC1C(OC(N)=O)C(O)C(Oc2ccc3c(O)c(NC(=O)c4ccc(O)c(CC=C(C)C)c4)c(=O)oc3c2C)OC1(C)C has viability, T/C below 90%. Can you tell?
Yes

I wonder whether COc1cc(C2c3cc4c(cc3C(OC3OC5COC(C)OC5C(O)C3O)C3COC(=O)C23)OCO4)cc(OC)c1O (stereo not given) + Cc1cccc(N(C)C(=O)C2C(O)CCN2c2nc(C)cc(C(F)(F)F)c2C#N)c1 has viability, T/C below 90%. Can you tell?
Yes

====

Test system: 889142-216-R-J1-PDC complex spheroid viability
Assay: Anticancer human tumor 889142-216-R-J1-PDC cell line growth inhibition [POLQ];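 further: spheroids exposed to compounds for seven days; 100% = DMSO vehicle control viability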
Conditions: second compound 3.16 µM; first compound 0.1 µM; active compounds read low
PARAMETER_MEASURED: viability, T/C (%)
Just the number please, in %, no unit attached.

The measured viability, T/C that C=CC(=O)N1CCN(c2nc(=O)n(-c3c(C)ccnc3C(C)C)c3nc(-c4c(O)cccc4F)c(F)cc23)C(C)C1 (stereo not given) + Cc1cccc(N(C)C(=O)C2C(O)CCN2c2nc(C)cc(C(F)(F)F)c2C#N)c1 showed for 889142-216-R-J1-PDC complex spheroid viability is 89.3

The measured viability, T/C that COc1cccc(OCCCN)c1-c1cc(Nc2cnc(C#N)cn2)n[nH]1 + Nc1ccc(C#CCN(C(=O)Cc2ncc(C(F)(F)F)cc2C(F)(F)F)c2ccc(F)cc2)nn1 showed for 889142-216-R-J1-PDC complex spheroid viability is 48.9

The measured viability, T/C that O=c1[nH]cc(F)c(=O)[nH]1 + Nc1ccc(C#CCN(C(=O)Cc2ncc(C(F)(F)F)cc2C(F)(F)F)c2ccc(F)cc2)nn1 showed for 889142-216-R-J1-PDC complex spheroid viability is 89.2

The measured viability, T/C that CCc1c2c(nc3ccc(O)cc13)-c1cc3c(c(=O)n1C2)COC(=O)[C@]3(O)CC + Nc1ccc(C#CCN(C(=O)Cc2ncc(C(F)(F)F)cc2C(F)(F)F)c2ccc(F)cc2)nn1 showed for 889142-216-R-J1-PDC complex spheroid viability is 35.8

The measured viability, T/C that Cn1ncnc1[C@H]1c2n[nH]c(=O)c3cc(F)cc(c23)N[C@@H]1c1ccc(F)cc1 + COC1C(OC(N)=O)C(O)C(Oc2ccc3c(O)c(NC(=O)c4ccc(O)c(CC=C(C)C)c4)c(=O)oc3c2C)OC1(C)C showed for 889142-216-R-J1-PDC complex spheroid viability is 74.1
